Source listed as patent US6656911B2.

Tested on: polymorphoneucleocyte (PMN)
TEST PROTOCOL: Extracellular Matrix (ECM) degradation assay
Format: cell-based
CONDITION CONTEXT: 1 uM inhibitor; PMN's stimulated with opsonized zymosan; 4 hr at 37° C.
PARAMETER MEASURED: inhibition at 1 µM (%)
Numbers only; they are read as %.

Task item: GET inhibition at 1 µM | system: polymorphoneucleocyte (PMN) | item: Cc1cccc(Cc2nnc(C(=O)C(NC(=O)CN3C(=O)C(c4ccccc4)N(CCN4CCOCC4)C3=O)C(C)C)o2)c1 (centres unmarked)
Reply: 40.8

Task item: Name the value of inhibition at 1 µM reported for Cc1cccc(Cc2nnc(C(=O)[C@@H](NC(=O)Cn3c(-c4ccccc4)ncc(N)c3=O)C(C)C)o2)c1 when tested on polymorphoneucleocyte (PMN).
Reply: 68.3

Task item: Please report inhibition at 1 µM with polymorphoneucleocyte (PMN) for item Cc1cccc(Cc2nnc(C(=O)[C@@H](NC(=O)[C@@H]3CCCN3C(=O)[C@@H](NC(=O)OCc3ccccc3)C(C)C)C(C)C)o2)c1 .
Reply: 64.8

Task item: Report inhibition at 1 µM under test system polymorphoneucleocyte (PMN) for Cc1cccc(Cc2nnc(C(=O)[C@@H](NC(=O)CN3C(=O)NC4(Cc5ccccc5C4)C3=O)C(C)C)o2)c1 .
Reply: 31.9

Task item: Using polymorphoneucleocyte (PMN) as the test system, report measured inhibition at 1 µM of CC(C)[C@H](NC(=O)[C@@H]1CCCN1C(=O)[C@@H](NC(=O)OCc1ccccc1)C(C)C)C(=O)c1nnc(Cc2ccc(N(C)C)cc2)o1 .
Reply: 57.6

Task item: Give polymorphoneucleocyte (PMN) inhibition at 1 µM for the following compound: Cc1cccc(Cc2nnc(C(=O)[C@@H](NC(=O)[C@@H]3CCCN3C(=O)[C@@H](NC(=O)c3cccnc3)C(C)C)C(C)C)o2)c1
Reply: 25

Task item: System polymorphoneucleocyte (PMN). Read-out inhibition at 1 µM. Item Cc1cccc(Cc2nnc(C(=O)[C@@H](NC(=O)CN3C(=O)CN=C(c4ccccn4)c4ccccc43)C(C)C)o2)c1 . Report value.
Reply: 28.1

Task item: Supply inhibition at 1 µM measured with polymorphoneucleocyte (PMN) for Cc1cccc(Cc2nnc(C(=O)C(NC(=O)CN3C(=O)C(N)N=C(c4ccc(Cl)cc4)c4ccccc43)C(C)C)o2)c1 (centres unmarked) .
Reply: 43.2

Task item: # assay system polymorphoneucleocyte (PMN): give inhibition at 1 µM of Cc1cccc(Cc2nnc(C(=O)[C@@H](NC(=O)CN3C(=O)CN=C(c4ccc(C(F)(F)F)cc4)c4ccccc43)C(C)C)o2)c1
Reply: 34.6

Task item: // fetch inhibition at 1 µM; item: Cc1cccc(Cc2nnc(C(=O)[C@@H](NC(=O)CN3C(=O)CN=C(c4ccccc4)c4ccccc43)C(C)C)o2)c1 ; system: polymorphoneucleocyte (PMN)
Reply: 9.96

Task item: Specify the recorded inhibition at 1 µM for Cc1cccc(Cc2nnc(C(=O)C(NC(=O)CN3C(=O)C(N)N=C(c4ccccc4)c4ccccc43)C(C)C)o2)c1 (centres unmarked) , system: polymorphoneucleocyte (PMN).
Reply: 21.7

Task item: Lab note: record inhibition at 1 µM of Cc1cccc(Cc2nnc(C(=O)[C@@H](NC(=O)Cn3c(-c4ccc(F)cc4)ncc(NC(=O)OCc4ccccc4)c3=O)C(C)C)o2)c1 tested on polymorphoneucleocyte (PMN).
Reply: 60.4

Task item: Under polymorphoneucleocyte (PMN), report inhibition at 1 µM for COc1ccccc1C1=NCC(=O)N(CC(=O)N[C@H](C(=O)c2nnc(Cc3cccc(C)c3)o2)C(C)C)c2ccccc21
Reply: 27.4

Task item: Report its inhibition at 1 µM with polymorphoneucleocyte (PMN) as the test system: Cc1cccc(Cc2nnc(C(=O)C(NC(=O)CN3C(=O)C(Cc4ccccc4)N(CCN4CCOCC4)C3=O)C(C)C)o2)c1 (centres unmarked)
Reply: 30.5
